Test system: K24384-001-R-PDC complex spheroids, viability
Assay: Anticancer human tumor K24384-001-R-PDC patient-derived pancreatic adenocarcinoma cell line growth inhibition [GQUAD]
Details: curve of first compound; second compound 3.16 µM
RECORDED ENDPOINT: IC50 (nM)
Express your answer in nM, writing the number without its unit.

Illustrative cases are given below, each with its answer.
MOLECULE	MEASUREMENT TARGET	EXPERIMENTAL RESULT
CC1COCCN1c1cc(-c2ccnn2C)c2ccnc(-c3ccn[nH]3)c2n1 (stereo not given) + Cc1[nH]c2ccc(F)cc2c1-c1nc2c3cccnc3c3ncccc3c2[nH]1	K24384-001-R-PDC complex spheroids, viability	57.6
CC[C@@]1(O)C(=O)OCc2c1cc1n(c2=O)Cc2cc3c(CN(C)C)c(O)ccc3nc2-1 + CN(C)c1ccc(Nc2c3ccc(NC(=O)CCN4CCCC4)cc3nc3cc(NC(=O)CCN4CCCC4)ccc23)cc1	K24384-001-R-PDC complex spheroids, viability	153
CC(C)n1c(=O)n(C)c2cnc3cc(F)c(-c4ccc(OCCCN5CCCCC5)nc4)cc3c21 + CN(C)c1ccc(Nc2c3ccc(NC(=O)CCN4CCCC4)cc3nc3cc(NC(=O)CCN4CCCC4)ccc23)cc1	K24384-001-R-PDC complex spheroids, viability	9510

# ---- query molecule ----
What value of IC50 has been reported for the following molecule? CC1COCCN1c1cc(-c2ccnn2C)c2ccnc(-c3ccn[nH]3)c2n1 (stereo not given) + CN(C)c1ccc(Nc2c3ccc(NC(=O)CCN4CCCC4)cc3nc3cc(NC(=O)CCN4CCCC4)ccc23)cc1
88.3

* * *

Test system: K24384-001-R-PDC complex spheroids, viability
Assay: Anticancer human tumor K24384-001-R-PDC cell line growth inhibition [GQUAD];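 further: spheroids exposed to compounds for seven days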
Conditions: second compound 1 µM; first compound 0.1 µM; stronger effect = lower value
RECORDED ENDPOINT: viability, T/C (%)
Number in %, nothing else.

Recorded results for 3 compounds are shown here.
COMPOUND	RECORDED ENDPOINT	EXPERIMENTAL RESULT
COc1ccc([C@@H](O)c2cc(-c3ncnc4cc(N5CCOCC5)ccc34)c(F)cc2Cl)nn1 + Cc1[nH]c2ccc(F)cc2c1-c1nc2c3cccnc3c3ncccc3c2[nH]1	viability, T/C	99.5
CC(=O)O[C@H]1C(=O)[C@@]2(C)[C@H]([C@H](OC(=O)c3ccccc3)[C@]3(O)C[C@H](OC(=O)[C@H](O)[C@@H](NC(=O)c4ccccc4)c4ccccc4)C(C)=C1C3(C)C)[C@]1(OC(C)=O)CO[C@@H]1C[C@@H]2O + Cc1cnc(CNC(=O)c2c(=O)c3ccc(N4CCCN(C)CC4)nc3n3c2sc2ccccc23)cn1	viability, T/C	36.2
COc1cccc2c1C(=O)c1c(O)c3c(c(O)c1C2=O)CC(O)(C(=O)CO)CC3OC1CC(N)C(O)C(C)O1 (centres undefined) + Cc1cnc(CNC(=O)c2c(=O)c3ccc(N4CCCN(C)CC4)nc3n3c2sc2ccccc23)cn1	viability, T/C	46.6

// viability, T/C lookup, key: Nc1ccn(C2OC(CO)C(O)C2(F)F)c(=O)n1 (centres undefined) + Cc1cnc(CNC(=O)c2c(=O)c3ccc(N4CCCN(C)CC4)nc3n3c2sc2ccccc23)cn1
43.5

Using the record for Nc1ccn(C2OC(CO)C(O)C2(F)F)c(=O)n1 (centres undefined) + Cc1[nH]c2ccc(F)cc2c1-c1nc2c3cccnc3c3ncccc3c2[nH]1 , report its viability, T/C.
70

Endpoint output: viability, T/C of CC(C)(O)C1CCC(Nc2ccc3ncc(-c4cccc(C(F)(F)F)c4)n3n2)CC1 (centres undefined) + Cc1cnc(CNC(=O)c2c(=O)c3ccc(N4CCCN(C)CC4)nc3n3c2sc2ccccc23)cn1 . Value?
53

* * *

Test system: K24384-001-R-PDC complex spheroids, viability
Assay: Anticancer human tumor K24384-001-R-PDC cell line growth inhibition [GQUAD];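 further: spheroids exposed to compounds for seven days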
Conditions: second compound 3.16 µM; first compound 0.1 µM; stronger effect = lower value
RECORDED ENDPOINT: viability, T/C (%)
Express it in %; write the number only.

COMPOUND	viability, T/C / %
C#Cc1c(F)ccc2cc(O)cc(-c3ncc4c(N5CC6CCC(C5)N6)nc(OCC56CCCN5CC(F)C6)nc4c3F)c12 (stereo unspecified) + Cc1cnc(CNC(=O)c2c(=O)c3ccc(N4CCCN(C)CC4)nc3n3c2sc2ccccc23)cn1	36.7
COc1cc(C2c3cc4c(cc3C(OC3OC5COC(C)OC5C(O)C3O)C3COC(=O)C23)OCO4)cc(OC)c1O (stereo unspecified) + Cc1cnc(CNC(=O)c2c(=O)c3ccc(N4CCCN(C)CC4)nc3n3c2sc2ccccc23)cn1	44.9
COc1ccc([C@@H](O)c2cc(-c3ncnc4cc(N5CCOCC5)ccc34)c(F)cc2Cl)nn1 + Cc1[nH]c2ccc(F)cc2c1-c1nc2c3cccnc3c3ncccc3c2[nH]1	76.8
O=c1[nH]cc(F)c(=O)[nH]1 + Cc1cnc(CNC(=O)c2c(=O)c3ccc(N4CCCN(C)CC4)nc3n3c2sc2ccccc23)cn1	37
CCCS(=O)(=O)Nc1ccc(F)c(C(=O)c2c[nH]c3ncc(-c4ccc(Cl)cc4)cc23)c1F + CN(C)c1ccc(Nc2c3ccc(NC(=O)CCN4CCCC4)cc3nc3cc(NC(=O)CCN4CCCC4)ccc23)cc1	101

Query compound follows.
Query (compound): Nc1ccn(C2OC(CO)C(O)C2(F)F)c(=O)n1 (stereo unspecified) + Cc1[nH]c2ccc(F)cc2c1-c1nc2c3cccnc3c3ncccc3c2[nH]1 ; field requested: viability, T/C
60.9

* * *

Test system: K24384-001-R-PDC complex spheroids, viability
Test: Anticancer human tumor K24384-001-R-PDC cell line growth inhibition [GQUAD];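 further: spheroids exposed to compounds for seven days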
Conditions: second compound 0.1 µM; first compound 0.316 µM; stronger effect = lower value
RECORDED ENDPOINT: viability, T/C (%)
Unit % implied. Number only.

COMPOUND	MEASUREMENT TARGET	RECORDED ENDPOINT	UNITS TEXT	EXPERIMENTAL RESULT
Nc1ccn(C2OC(CO)C(O)C2(F)F)c(=O)n1 (stereo unspecified) + CN(C)c1ccc(Nc2c3ccc(NC(=O)CCN4CCCC4)cc3nc3cc(NC(=O)CCN4CCCC4)ccc23)cc1	K24384-001-R-PDC complex spheroids, viability	viability, T/C	%	38.2
CC(C)(O)C1CCC(Nc2ccc3ncc(-c4cccc(C(F)(F)F)c4)n3n2)CC1 (stereo unspecified) + CN(C)c1ccc(Nc2c3ccc(NC(=O)CCN4CCCC4)cc3nc3cc(NC(=O)CCN4CCCC4)ccc23)cc1	K24384-001-R-PDC complex spheroids, viability	viability, T/C	%	96.4
COc1ccc([C@@H](O)c2cc(-c3ncnc4cc(N5CCOCC5)ccc34)c(F)cc2Cl)nn1 + Cc1[nH]c2ccc(F)cc2c1-c1nc2c3cccnc3c3ncccc3c2[nH]1	K24384-001-R-PDC complex spheroids, viability	viability, T/C	%	92.7
COc1ccc([C@@H](O)c2cc(-c3ncnc4cc(N5CCOCC5)ccc34)c(F)cc2Cl)nn1 + CN(C)c1ccc(Nc2c3ccc(NC(=O)CCN4CCCC4)cc3nc3cc(NC(=O)CCN4CCCC4)ccc23)cc1	K24384-001-R-PDC complex spheroids, viability	viability, T/C	%	102
C#Cc1c(F)ccc2cc(O)cc(-c3ncc4c(N5CC6CCC(C5)N6)nc(OCC56CCCN5CC(F)C6)nc4c3F)c12 (stereo unspecified) + CN(C)c1ccc(Nc2c3ccc(NC(=O)CCN4CCCC4)cc3nc3cc(NC(=O)CCN4CCCC4)ccc23)cc1	K24384-001-R-PDC complex spheroids, viability	viability, T/C	%	78.2

Field request: viability, T/C | item: C=CC(=O)N1CCN(c2nc(=O)n(-c3c(C)ccnc3C(C)C)c3nc(-c4c(O)cccc4F)c(F)cc23)C(C)C1 (stereo unspecified) + Cc1[nH]c2ccc(F)cc2c1-c1nc2c3cccnc3c3ncccc3c2[nH]1
95

# input compound: COc1ncnc(C2CC2)c1-c1ncc2cnn(Cc3ccc(-c4nc(C(F)(F)F)cn4C(C)C)cc3)c2n1 + Cc1cnc(CNC(=O)c2c(=O)c3ccc(N4CCCN(C)CC4)nc3n3c2sc2ccccc23)cn1 ; wanted: its viability, T/C
71.6

Fill in the blank: the reported viability, T/C of Nc1ccn(C2OC(CO)C(O)C2(F)F)c(=O)n1 (stereo unspecified) + Cc1[nH]c2ccc(F)cc2c1-c1nc2c3cccnc3c3ncccc3c2[nH]1 is ____.
36.7

Record request: viability, T/C value, item CCc1c2c(nc3ccc(O)cc13)-c1cc3c(c(=O)n1C2)COC(=O)[C@]3(O)CC + Cc1cnc(CNC(=O)c2c(=O)c3ccc(N4CCCN(C)CC4)nc3n3c2sc2ccccc23)cn1
16.1

I'd like to know its viability, T/C. The compound in question is CC(C)(O)C1CCC(Nc2ccc3ncc(-c4cccc(C(F)(F)F)c4)n3n2)CC1 (stereo unspecified) + Cc1[nH]c2ccc(F)cc2c1-c1nc2c3cccnc3c3ncccc3c2[nH]1
90.4

Item CC[C@@]1(O)C(=O)OCc2c1cc1n(c2=O)Cc2cc3c(CN(C)C)c(O)ccc3nc2-1 + CN(C)c1ccc(Nc2c3ccc(NC(=O)CCN4CCCC4)cc3nc3cc(NC(=O)CCN4CCCC4)ccc23)cc1 has what recorded viability, T/C?
38.8
